Tested on: Radical scavenging activity
Procedure summary: Antioxidant activity assessed as DPPH free radical scavenging activity at 50 uM after 20 to 60 mins by spectrophotometry
Type: functional
Active and inactive are the calls of the source. The calls are words filed in the database; no cut-off is given here.
Measure name: Activity

Sample smiles | Measure name | Measured result
O=C(NN=C1CCCC1)c1cc2ccccc2[nH]1 | Activity | inactive
NNCCCc1c[nH]c2ccccc12 | Activity | inactive
C/C(Cc1ccccc1)=N/NC(=O)c1c[nH]c2ccc(O)cc12 | Activity | inactive
CC(C)=NNC(=O)c1cc2ccccc2n1C | Activity | inactive
NNC(=O)CCc1c[nH]c2ccccc12 | Activity | inactive

Lookup: Need Activity, item "Cc1ccc(CNNC(=O)c2cc3ccccc3n2C)cc1"
Found: inactive

Lookup: Data request, read-out Activity, for "CCCCNNC(=O)c1cc2ccccc2[nH]1"
Found: inactive

Lookup: Endpoint output: Activity of "C/C(CC(C)C)=N\NC(=O)c1cc2ccccc2[nH]1" . Value?
Found: inactive

Lookup: Name the recorded Activity for "O=C(NNCCCc1ccccc1)c1cc2ccccc2[nH]1" .
Found: inactive

Lookup: Fill in the blank: the reported Activity of "CCC(CC)NNC(=O)c1cc2ccccc2[nH]1" is ____.
Found: inactive
